# credit: the supplement of paper PMC10307832

The molecules listed here are annotated with their relative viability.
System: NCI-H2347
Assay: relative viability (nuclei count vs DMSO), 5 days (fraction); higher = more cells survive
Conditions: first compound 0.253 µM
Field format: numeric only.

These recorded examples may help you get a feel for the data.
- O=c1[nH]c2ccccc2n1C1CCN(CCCC(c2ccc(F)cc2)c2ccc(F)cc2)CC1 [Pimozide] + Cc1cc(Nc2cc(N3CCN(C)CC3)nc(Sc3ccc(NC(=O)C4CC4)cc3)n2)n[nH]1 [Tozasertib] (partner 0.1 µM): 0.582
- Cc1cnc(-c2cnc(NCCNc3ccc(C#N)cn3)nc2-c2ccc(Cl)cc2Cl)[nH]1 + COc1cc2c(Oc3ccc(NC(=O)C4(C(=O)Nc5ccc(F)cc5)CC4)cc3F)ccnc2cc1OCCCN1CCOCC1 [Foretinib] (partner 0.25 µM): 1.11

Switching to the query record.
Need relative viability of Cc1cnc(-c2cnc(NCCNc3ccc(C#N)cn3)nc2-c2ccc(Cl)cc2Cl)[nH]1 + NC(=O)Nc1cc(-c2cccc(F)c2)sc1C(=O)N[C@H]1CCCNC1 [AZD7762] (partner 0.2 µM) , thanks.
0.612
